GI50 for assorted molecules
- Tested on: A549 NSCLC
- assay remarks: NCI tumour cell line growth inhibition, 48 h

{"molecule": "O=C(NCc1ccc(Cn2c(=O)sn(-c3ccccc3)c2=O)cc1)OCc1ccc2cccc(O)c2n1", "system name": "A549 NSCLC", "GI50": "1510 nM"}
{"molecule": "Cn1cc(-c2csc(-c3cn(CCCCN4CCCCC4)c4ccccc34)n2)c2cccnc21", "system name": "A549 NSCLC", "GI50": "1790 nM"}
{"molecule": "CCCCCCCCCCNC(=O)CI", "system name": "A549 NSCLC", "GI50": "5440 nM"}
{"molecule": "N#CCCN1C/C(=C/c2ccc(Br)cc2)C(=O)/C(=C/c2ccc(Br)cc2)C1", "system name": "A549 NSCLC", "GI50": "2380 nM"}
{"molecule": "CC(C)(C)[Si](C)(C)OC1[C@@H](CNC(=O)NC(=O)CCl)O[C@@H](n2cnc3c(N)ncnc32)[C@H]1O[Si](C)(C)C(C)(C)C (stereo partly drawn)", "system name": "A549 NSCLC", "GI50": "2100 nM"}
{"molecule": "CCCc1cc(=O)n2c(C(=O)Nc3ccc(Cl)cc3C)c(C(=O)Nc3ccc(F)cc3)sc2n1", "system name": "A549 NSCLC", "GI50": "2630 nM"}
{"molecule": "CC(C)[C@H](O)C(=O)N[C@@H](C)C(=O)N[C@@H]1C(=O)N(C)CCc2ccccc21", "system name": "A549 NSCLC", "GI50": "> 100000 nM"}
{"molecule": "CCN(CC)CCCCCCNc1cccc2cc(Br)cnc12", "system name": "A549 NSCLC", "GI50": "8070 nM"}

Where do these numbers come from? They come from PubChem BioAssay (NCI).
